# target.under.test: T1, HLA-A2 / homologous peptide CD163 complex on T2 cells (human)
# T1 construct: whole, on cells; also called T2 cells supplemented with homologous peptide CD163
# assay.name: flow cytometry on peptide-pulsed T2 cells, scFv 100 nM;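 also: scFv binding read as gMFI and normalized to the level of HLA/peptide complex displayed on T2 cells, with homologous 9-mer peptides used to probe specificity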
reported.endpoint: standardized gMFI

## Task Return value of standardized gMFI for input NYA-0001 (scFv, also called NYA-0001 tag adduct; NY-R119 expressed in a cultured mammalian cell) scFv: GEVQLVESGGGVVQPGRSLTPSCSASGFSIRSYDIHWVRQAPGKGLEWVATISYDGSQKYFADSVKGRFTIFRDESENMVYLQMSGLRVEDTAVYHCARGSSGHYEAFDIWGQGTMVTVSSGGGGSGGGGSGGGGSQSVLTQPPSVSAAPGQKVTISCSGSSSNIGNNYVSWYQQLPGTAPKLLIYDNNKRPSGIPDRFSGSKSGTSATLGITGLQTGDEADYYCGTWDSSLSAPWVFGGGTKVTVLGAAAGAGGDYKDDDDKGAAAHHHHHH , no commentary.
## Result 0.48
